molecular target: BRG-1 (Homo sapiens, UniProt P51532); construct: made in house; host or cells: High Five insect cells; assay: ATPase catalytic activity of BRG-1, ADP-Glo in vitro biochemical assay; details: ATPase catalytic activity, ADP-Glo; 30 nM BRG-1, 400 μM ATP; read-out: BRG1 IC50
Sequence (P51532 whole entry): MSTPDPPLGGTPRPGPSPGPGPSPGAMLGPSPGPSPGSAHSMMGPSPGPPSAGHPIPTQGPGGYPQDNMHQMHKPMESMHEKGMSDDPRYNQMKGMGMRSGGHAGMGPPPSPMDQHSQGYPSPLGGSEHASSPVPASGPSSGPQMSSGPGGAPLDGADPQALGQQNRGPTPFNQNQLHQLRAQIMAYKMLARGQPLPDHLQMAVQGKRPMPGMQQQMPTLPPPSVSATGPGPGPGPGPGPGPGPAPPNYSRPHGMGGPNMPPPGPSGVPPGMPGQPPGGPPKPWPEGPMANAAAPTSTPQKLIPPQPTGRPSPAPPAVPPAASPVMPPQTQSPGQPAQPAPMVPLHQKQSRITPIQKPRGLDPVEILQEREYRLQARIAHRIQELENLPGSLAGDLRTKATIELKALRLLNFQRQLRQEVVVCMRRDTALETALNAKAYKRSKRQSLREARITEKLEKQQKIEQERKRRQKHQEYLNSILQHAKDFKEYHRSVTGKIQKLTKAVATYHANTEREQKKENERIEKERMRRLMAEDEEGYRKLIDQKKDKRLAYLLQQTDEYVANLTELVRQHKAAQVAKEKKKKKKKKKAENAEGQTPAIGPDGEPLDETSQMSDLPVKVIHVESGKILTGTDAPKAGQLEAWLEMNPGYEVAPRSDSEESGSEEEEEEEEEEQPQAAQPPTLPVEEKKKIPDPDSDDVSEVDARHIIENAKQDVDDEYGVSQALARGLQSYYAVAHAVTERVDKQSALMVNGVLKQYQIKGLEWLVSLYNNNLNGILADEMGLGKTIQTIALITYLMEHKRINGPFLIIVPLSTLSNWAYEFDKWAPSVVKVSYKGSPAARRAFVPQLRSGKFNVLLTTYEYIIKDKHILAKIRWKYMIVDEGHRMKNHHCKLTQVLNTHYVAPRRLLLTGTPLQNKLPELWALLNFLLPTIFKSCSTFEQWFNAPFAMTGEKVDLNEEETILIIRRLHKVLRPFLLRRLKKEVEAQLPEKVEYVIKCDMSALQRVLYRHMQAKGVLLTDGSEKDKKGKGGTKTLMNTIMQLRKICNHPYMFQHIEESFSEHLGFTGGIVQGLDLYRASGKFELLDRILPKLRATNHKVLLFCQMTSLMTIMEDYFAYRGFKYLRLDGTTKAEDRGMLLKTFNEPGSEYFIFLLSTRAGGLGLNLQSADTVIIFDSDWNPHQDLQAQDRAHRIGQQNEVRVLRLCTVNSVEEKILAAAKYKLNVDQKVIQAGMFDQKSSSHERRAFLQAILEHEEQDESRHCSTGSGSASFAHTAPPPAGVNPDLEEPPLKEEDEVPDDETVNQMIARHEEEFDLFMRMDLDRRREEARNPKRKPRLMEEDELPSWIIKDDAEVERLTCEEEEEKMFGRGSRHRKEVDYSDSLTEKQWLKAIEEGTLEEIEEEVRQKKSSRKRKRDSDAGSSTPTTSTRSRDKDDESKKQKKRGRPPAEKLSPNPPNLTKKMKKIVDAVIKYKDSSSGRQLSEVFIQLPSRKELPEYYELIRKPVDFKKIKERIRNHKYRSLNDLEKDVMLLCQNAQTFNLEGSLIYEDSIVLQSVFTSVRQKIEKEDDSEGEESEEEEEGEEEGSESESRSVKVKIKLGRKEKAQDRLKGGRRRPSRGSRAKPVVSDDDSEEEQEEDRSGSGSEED
Response field label: string, one of 1 (IC50 strictly below 200 nM) or -1.

Study these solved cases before continuing.
# compound, label
records = [
    ("C[C@]1(F)CCCN(c2cccc(-c3ccc4cnc(CNC(=O)c5ccc6c(c5)S(=O)(=O)CCOC6)cc4n3)n2)C1", 1),
    ("O=C(NCc1cc2nc(N3CCCC4CCCCC43)ccc2cn1)c1ccc2c(c1)S(=O)(=O)CCOC2 (stereo not shown)", -1),
]

Does the reported IC50 of the following compound sit strictly below 200 nM? CCN(CC1COC1)c1cccc(-c2ccc3cnc(CNC(=O)c4ccc5c(c4)S(=O)(=O)CCOC5)cc3n2)n1
1

Please state whether IC50 is below 200 nM for C[C@@H]1CN(c2cccc(-c3ccc4cnc(CNC(=O)c5ccc6c(c5)S(=O)(=O)CCOCC6)cc4n3)n2)C[C@H](C)O1
1

Quick check: IC50 of Cc1cnc2c(n1)CCCN2c1ccc2cnc(CNC(=O)c3ccc4c(c3)S(=O)(=O)CCOC4)cc2n1 under 200 nM?
-1

Is IC50 strictly under 200 nM for the entry COc1cc(Cl)ccc1-c1ccc2cnc(CNC(=O)c3ccc4c(c3)S(=O)(=O)[C@@H](C)COC4)cc2n1 ?
1
